# system: SERCA2a (Cavia porcellus)
# Sequence (A0A286XD73 1-997): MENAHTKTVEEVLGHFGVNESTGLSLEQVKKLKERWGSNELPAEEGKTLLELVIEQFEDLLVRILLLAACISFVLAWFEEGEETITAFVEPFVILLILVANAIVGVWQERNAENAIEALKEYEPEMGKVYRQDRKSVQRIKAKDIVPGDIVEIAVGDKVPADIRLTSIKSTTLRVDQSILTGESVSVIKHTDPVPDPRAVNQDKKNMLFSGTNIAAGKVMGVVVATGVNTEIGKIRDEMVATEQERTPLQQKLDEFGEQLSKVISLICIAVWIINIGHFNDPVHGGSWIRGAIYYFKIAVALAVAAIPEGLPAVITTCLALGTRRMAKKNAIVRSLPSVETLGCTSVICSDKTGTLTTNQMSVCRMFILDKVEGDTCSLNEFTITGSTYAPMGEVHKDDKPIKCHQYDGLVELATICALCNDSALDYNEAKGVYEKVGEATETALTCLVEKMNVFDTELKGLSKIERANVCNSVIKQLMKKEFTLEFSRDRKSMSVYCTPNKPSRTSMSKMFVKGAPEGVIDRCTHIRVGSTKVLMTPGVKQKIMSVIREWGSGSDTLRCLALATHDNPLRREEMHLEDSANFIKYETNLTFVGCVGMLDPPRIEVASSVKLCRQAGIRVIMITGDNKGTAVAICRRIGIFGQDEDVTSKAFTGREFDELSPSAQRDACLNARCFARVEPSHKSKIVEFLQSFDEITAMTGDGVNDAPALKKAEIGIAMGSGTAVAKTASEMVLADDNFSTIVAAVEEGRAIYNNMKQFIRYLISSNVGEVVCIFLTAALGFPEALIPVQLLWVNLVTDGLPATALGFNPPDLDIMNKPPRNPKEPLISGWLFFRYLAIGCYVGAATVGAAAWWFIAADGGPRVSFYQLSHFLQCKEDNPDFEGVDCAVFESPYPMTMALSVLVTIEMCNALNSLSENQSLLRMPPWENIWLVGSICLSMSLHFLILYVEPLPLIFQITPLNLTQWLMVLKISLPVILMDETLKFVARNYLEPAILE
# assay name: SERCA2a ATPase activity in heart-derived SR microsomes from normal guinea-pig
# Format: biochemical
# setup conditions: compound 10 nM
readout type: % change in Ca2+ Kd vs control (negative = decrease) (%*)
State just the number; it will be interpreted in %*.

- compound: "C[C@]12CC/C(=C\\CCC(=O)O)CC1[C@@H](O)C[C@@H]1[C@@H]2CC[C@]2(C)C(=O)CC[C@@H]12 (stereo partly shown)"
  test value: "−14"
- compound: "CCOC(=O)CCC[C@H]1CC[C@]2(C)C3CC[C@]4(C)C(=O)CCC4C3C[C@H](O)C2C1 (stereo partly shown)"
  test value: "−24.7"
- compound: "CCOC(=O)CCCCC[C@H]1CC[C@]2(C)C3CC[C@]4(C)C(=O)CCC4C3C[C@H](O)C2C1 (stereo partly shown)"
  test value: "−7"

Turning now to a further compound:
### Prompt For SERCA2a (Cavia porcellus), provide % change in Ca2+ Kd vs control (negative = decrease) of C[C@]12CC[C@H](CCC3CCNCC3)CC1[C@@H](O)C[C@@H]1[C@@H]2CC[C@]2(C)C(=O)CC[C@@H]12 (stereo partly shown) please.
### Response −19.6
